Target: soluble guanylate cyclase (sGC) (Homo sapiens, UniProt Q02108+Q02153)
Construct: endogenously expressing soluble guanylate cyclase (sGC); endogenous in cells; host or cells: HEK293
Experiment: sGC-HEK-cGMP assay with SNP incubation (LC/MS read-out)
Assay type: cell-based
Conditions: 30 μM compound, 10 μM SNP; 100% = BAY 41-2272 at 10 μM with 100 μM SNP; read-out: HEK assay (Percent Emax at 30 μM)
Listed here are compounds together with their documented Emax at 30 µM.

If you can, please state the reported Emax at 30 µM value of `O=c1[nH]c(-n2cc(-c3ccon3)c(Cc3ccccc3F)n2)ncc1F` .
80 to 100%

// query Emax at 30 µM value for entry `Nc1ccnc(-n2cc(-c3ccon3)c(Cc3ccccc3F)n2)n1`
80 to 100%

* * *

Parameter: EC50. Scope: all listed entries.
Target: soluble guanylate cyclase (sGC) (Homo sapiens, UniProt Q02108+Q02153)
Construct: endogenously expressing soluble guanylate cyclase (sGC); endogenous in cells; host or cells: HEK293
Sequence (Q02153 1-619): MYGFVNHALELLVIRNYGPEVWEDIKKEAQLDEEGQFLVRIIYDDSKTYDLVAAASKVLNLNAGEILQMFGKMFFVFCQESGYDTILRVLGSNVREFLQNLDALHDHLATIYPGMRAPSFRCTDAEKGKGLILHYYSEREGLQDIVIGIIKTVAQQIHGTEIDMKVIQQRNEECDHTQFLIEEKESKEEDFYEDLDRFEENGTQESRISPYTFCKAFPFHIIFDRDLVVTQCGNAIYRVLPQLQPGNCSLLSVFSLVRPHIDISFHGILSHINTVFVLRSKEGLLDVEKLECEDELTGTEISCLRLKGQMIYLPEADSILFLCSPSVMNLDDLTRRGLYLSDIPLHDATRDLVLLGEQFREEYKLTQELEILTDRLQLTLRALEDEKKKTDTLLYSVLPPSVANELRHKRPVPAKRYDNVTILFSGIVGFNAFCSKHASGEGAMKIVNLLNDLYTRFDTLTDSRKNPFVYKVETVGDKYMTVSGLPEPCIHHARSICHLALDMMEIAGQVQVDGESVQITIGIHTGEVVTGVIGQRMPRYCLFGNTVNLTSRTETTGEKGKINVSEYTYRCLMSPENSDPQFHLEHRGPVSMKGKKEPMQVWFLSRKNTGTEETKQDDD
Sequence (Q02108 1-690): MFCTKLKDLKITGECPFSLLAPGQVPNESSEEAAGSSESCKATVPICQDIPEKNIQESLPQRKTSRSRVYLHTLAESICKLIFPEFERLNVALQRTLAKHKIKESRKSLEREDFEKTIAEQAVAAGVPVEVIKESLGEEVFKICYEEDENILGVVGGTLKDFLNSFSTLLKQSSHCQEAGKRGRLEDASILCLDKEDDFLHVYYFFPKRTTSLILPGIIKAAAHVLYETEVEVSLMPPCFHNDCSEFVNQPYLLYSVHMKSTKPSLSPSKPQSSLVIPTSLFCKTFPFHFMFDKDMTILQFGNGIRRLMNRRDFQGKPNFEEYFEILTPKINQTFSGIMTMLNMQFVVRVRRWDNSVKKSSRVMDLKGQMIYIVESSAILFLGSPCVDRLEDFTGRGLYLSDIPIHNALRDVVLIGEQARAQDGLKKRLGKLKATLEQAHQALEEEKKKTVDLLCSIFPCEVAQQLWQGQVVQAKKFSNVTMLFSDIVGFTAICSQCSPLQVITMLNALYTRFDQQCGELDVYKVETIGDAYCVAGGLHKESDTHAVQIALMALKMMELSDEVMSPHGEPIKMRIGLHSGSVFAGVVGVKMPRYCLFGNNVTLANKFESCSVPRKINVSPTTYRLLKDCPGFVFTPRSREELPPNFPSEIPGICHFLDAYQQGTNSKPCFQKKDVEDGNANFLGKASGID
Experiment: HEK whole cell assay using HTRF procedure (with SNP incubation)
Assay type: cell-based
Conditions: HTRF cGMP read-out; top of curve not fitted to 100%; 10 μM SNP; read-out: HEK assay EC50-unconstrained

Give recorded EC50 with soluble guanylate cyclase (sGC) (Homo sapiens, UniProt Q02108+Q02153) for the following compound: OCC(O)Cn1ccc2cnc(-n3cc(-c4ccon4)c(Cc4ccccc4F)n3)nc21 (stereo not drawn)
100 to 500 nM

Quick check: EC50 on soluble guanylate cyclase (sGC) (Homo sapiens, UniProt Q02108+Q02153), item `OCC(CO)Nc1nc(-n2cc(-c3ccon3)c(Cc3ccccc3F)n2)ncc1F` ?
100 to 500 nM

API: value(readout= EC50, system= soluble guanylate cyclase (sGC) (Homo sapiens, UniProt Q02108+Q02153), query= `Fc1ccccc1Cc1nn(-c2ncc(F)c(N3CCOCC3)n2)cc1-c1ccon1` )
100 to 500 nM

* * *

Biological target: soluble guanylate cyclase (sGC) (Homo sapiens, UniProt Q02108+Q02153)
Construct: endogenously expressing soluble guanylate cyclase (sGC); endogenous in cells; host or cells: HEK293
Sequence (Q02153 1-619): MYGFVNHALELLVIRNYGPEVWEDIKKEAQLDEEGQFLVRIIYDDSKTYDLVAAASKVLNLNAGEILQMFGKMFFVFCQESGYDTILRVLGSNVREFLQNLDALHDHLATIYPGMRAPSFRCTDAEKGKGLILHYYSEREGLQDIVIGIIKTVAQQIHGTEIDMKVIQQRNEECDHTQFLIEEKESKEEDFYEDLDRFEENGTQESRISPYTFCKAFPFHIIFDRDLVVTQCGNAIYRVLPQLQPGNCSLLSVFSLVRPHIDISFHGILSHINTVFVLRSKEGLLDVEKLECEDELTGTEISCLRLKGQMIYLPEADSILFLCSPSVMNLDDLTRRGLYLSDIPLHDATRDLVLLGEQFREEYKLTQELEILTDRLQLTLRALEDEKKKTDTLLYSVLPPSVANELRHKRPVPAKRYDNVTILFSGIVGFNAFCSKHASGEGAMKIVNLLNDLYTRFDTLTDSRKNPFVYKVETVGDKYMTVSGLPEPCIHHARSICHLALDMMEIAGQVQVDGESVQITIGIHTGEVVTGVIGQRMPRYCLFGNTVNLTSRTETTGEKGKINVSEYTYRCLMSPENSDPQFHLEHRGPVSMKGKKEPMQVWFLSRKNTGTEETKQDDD
Sequence (Q02108 1-690): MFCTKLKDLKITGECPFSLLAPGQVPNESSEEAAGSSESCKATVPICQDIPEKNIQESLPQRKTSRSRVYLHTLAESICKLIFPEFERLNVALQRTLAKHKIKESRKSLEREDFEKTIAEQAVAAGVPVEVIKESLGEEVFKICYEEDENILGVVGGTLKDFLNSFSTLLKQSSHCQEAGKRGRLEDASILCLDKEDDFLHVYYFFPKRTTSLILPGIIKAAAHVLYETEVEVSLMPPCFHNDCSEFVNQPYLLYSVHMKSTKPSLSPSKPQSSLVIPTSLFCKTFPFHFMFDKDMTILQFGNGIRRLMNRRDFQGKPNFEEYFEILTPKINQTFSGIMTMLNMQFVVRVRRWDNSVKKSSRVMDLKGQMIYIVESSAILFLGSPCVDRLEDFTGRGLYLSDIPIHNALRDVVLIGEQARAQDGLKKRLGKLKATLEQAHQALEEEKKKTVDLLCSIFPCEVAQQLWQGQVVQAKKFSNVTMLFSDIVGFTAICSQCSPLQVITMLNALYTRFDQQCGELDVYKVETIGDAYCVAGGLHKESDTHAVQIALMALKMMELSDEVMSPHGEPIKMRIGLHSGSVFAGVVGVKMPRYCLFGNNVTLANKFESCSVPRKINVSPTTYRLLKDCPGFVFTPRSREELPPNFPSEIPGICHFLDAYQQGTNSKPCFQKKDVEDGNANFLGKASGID
Experiment: sGC-HEK-cGMP assay with SNP incubation (LC/MS read-out)
Type: cell-based
Settings: top of curve not fitted to 100%; 10 μM SNP; read-out: HEK assay EC50-unconstrained
pEC50: −log10 of the molar value.
measured-parameter: pEC50

Nc1ccnc(-n2cc(-c3ccon3)c(Cc3ccccc3F)n2)n1 : 6.30 to 7.00
COc1nc(-n2cc(-c3ccon3)c(Cc3ccccc3F)n2)ncc1F : 6.00 to 6.30
CC(C)[C@@H](C(=O)O)N(C)c1nc(-n2cc(-c3ccon3)c(Cc3ccccc3F)n2)ncc1F : 7.00 to 8.00

// switching to the query compound
Param item = `O=c1[nH]c(-n2cc(-c3ccon3)c(Cc3ccccc3F)n2)ncc1F` ; retrieve measured pEC50.
7.00 to 8.00

* * *

Molecular target: soluble guanylate cyclase (sGC) (Homo sapiens, UniProt Q02108+Q02153)
Construct: endogenously expressing soluble guanylate cyclase (sGC); endogenous in cells; host or cells: HEK293
Experiment: sGC-HEK-cGMP assay with SNP incubation (LC/MS read-out)
Format: cell-based
Conditions: 30 μM compound, 10 μM SNP; 100% = BAY 41-2272 at 10 μM with 100 μM SNP; read-out: HEK assay (Percent Emax at 30 μM)
measured-parameter: Emax at 30 µM

Nc1ccnc(-n2cc(-c3ncco3)c(Cc3ccccc3F)n2)n1 [Compound I-2] : 80 to 100%
COc1nc(-n2cc(-c3ccon3)c(Cc3ccccc3F)n2)ncc1F [Compound I-10] : 20 to 40%

# lookup: Emax at 30 µM of CC(C)[C@@H](C(=O)O)N(C)c1nc(-n2cc(-c3ccon3)c(Cc3ccccc3F)n2)ncc1F [Compound I-4]
100 to 120%

Fill blank: measured Emax at 30 µM of the compound Nc1nc(-n2cc(-c3ncco3)c(Cc3ccccc3F)n2)ncc1F [Compound I-8] is ____.
60 to 80%
